Cited source for all entries: paper PMC5768801

- system: PpPII (Porphyra purpurea, UniProt P51254)
- Sequence (P51254 whole entry): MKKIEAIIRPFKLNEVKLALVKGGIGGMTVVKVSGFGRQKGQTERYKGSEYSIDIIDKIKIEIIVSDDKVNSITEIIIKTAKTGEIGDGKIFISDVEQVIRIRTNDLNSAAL
- protocol.description: ITC binding of small effector molecules to red algal PpPII
- assay.context: in presence 2-OG (1 mM), read-out: Kd3 (three-sites binding model)
measured.metric: pKd
Numbers only, as −log10 of the molar value.

Challenge: Given the entry Nc1ncnc2c1ncn2[C@@H]1O[C@H](COP(=O)(O)OP(=O)(O)O)[C@@H](O)[C@H]1O , report its measured pKd.
Response given: 3.90

* * *

- system: CrPII
- protocol.description: ITC binding of small effector molecules to green algal CrPII
- Set-up: species or system Chlamydomonas reinhardtii
- assay.context: in presence ATP (2 mM), read-out: Kd2 (three-sites binding model)
measured.metric: pKd
Answers are plain numbers, as −log10 of the molar value.

Challenge: Given the entry O=C(O)CCC(=O)C(=O)O [2-OG, 2-oxoglutarate] , report its measured pKd.
Response given: 4.67

* * *

- system: PhyscoPII
- protocol.description: ITC binding of small effector molecules to plant-moss PhyscoPII
- Parameters: species or system Physcomitrella patens
- assay.context: titrant alone, read-out: Kd2 (three-sites binding model)
measured.metric: pKd
Answers are plain numbers, as −log10 of the molar value.

Challenge: Please tell me: pKd of Nc1ncnc2c1ncn2[C@@H]1O[C@H](COP(=O)(O)OP(=O)(O)OP(=O)(O)O)[C@@H](O)[C@H]1O , system PhyscoPII?
Response given: 4.87

* * *

- system: SyPII (Synechococcus elongatus)
- Construct: Strep-tag; made in house
- protocol.description: ITC binding of small effector molecules to cyanobacterial SyPII
- Set-up: species or system Synechococcus elongatus PCC 7942
- assay.context: in presence 2-OG (1 mM), read-out: Kd2 (three-sites binding model)
measured.metric: Kd (µM)
Numbers only, in µM.

Challenge: Please tell me: Kd of Nc1ncnc2c1ncn2[C@@H]1O[C@H](COP(=O)(O)OP(=O)(O)OP(=O)(O)O)[C@@H](O)[C@H]1O [ATP] , system SyPII (Synechococcus elongatus)?
Response given: 3

* * *

- system: SyPII (Synechococcus elongatus, UniProt P0A3F4)
- Construct: Strep-tag; made in house
- Sequence (P0A3F4 whole entry): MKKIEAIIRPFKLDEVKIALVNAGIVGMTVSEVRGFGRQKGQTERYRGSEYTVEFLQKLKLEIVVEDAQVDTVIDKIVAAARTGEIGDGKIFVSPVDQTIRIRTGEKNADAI
- protocol.description: ITC binding of small effector molecules to cyanobacterial SyPII
- Design: species or system Synechococcus elongatus PCC 7942
- assay.context: in presence 2-OG (1 mM), read-out: Kd3 (three-sites binding model)
measured.metric: Kd (µM)
One number for each entry, in µM.

Challenge: Given the entry Nc1ncnc2c1ncn2[C@@H]1O[C@H](COP(=O)(O)OP(=O)(O)OP(=O)(O)O)[C@@H](O)[C@H]1O , report its measured Kd.
Response given: 325

* * *

- system: CrPII
- protocol.description: ITC binding of small effector molecules to green algal CrPII
- Parameters: species or system Chlamydomonas reinhardtii
- assay.context: in presence 2-OG (2 mM), read-out: Kd3 (three-sites binding model)
measured.metric: Kd
Please answer using a numeric value trailed by its unit.

Challenge: Given the entry Nc1ncnc2c1ncn2[C@@H]1O[C@H](COP(=O)(O)OP(=O)(O)OP(=O)(O)O)[C@@H](O)[C@H]1O [ATP] , report its measured Kd.
Response given: 61.6 µM
